System: MDA-MB-435
Test: NCI tumour cell line growth inhibition, 48 h
Label Condition met when TGI is at or above 30 µM; otherwise label Condition not met.

Given the entry C[N+]1(C)CCc2cc(O)c(O)cc2C1Cc1ccc(O)c(O)c1 (stereo not given) , answer whether its TGI meets or surpasses 30 µM.
Condition met

Given the entry `CCCc1c(O)nc(Nc2nc3ccccc3[nH]2)[nH]c1=O` , answer whether its TGI meets or surpasses 30 µM.
Condition met

Given the entry `COC1=C(OC)C(=O)C(Cc2c(C)nc3sccn23)=C(C)C1=O` , answer whether its TGI meets or surpasses 30 µM.
Condition not met

Others:
Given the entry `COc1cc2c3c(n(CCCN)c(=O)c2cc1OC)-c1ccc(C#N)cc1C3=O` , answer whether its TGI meets or surpasses 30 µM.
Condition met

Given the entry `CC1(C)C(=O)/C(=C\c2cccnc2)C[C@]2(C)[C@H]3CC[C@@H]4[C@H]5[C@H](C(=O)/C=C/c6cccnc6)CC[C@]5(C(=O)O)CC[C@@]4(C)[C@]3(C)CC[C@@H]12` , answer whether its TGI meets or surpasses 30 µM.
Condition not met

Given the entry `Cc1ccc([N+](=O)[O-])c2c(NCCC[N+](C)(C)[O-])c3ccccc3nc12` , answer whether its TGI meets or surpasses 30 µM.
Condition not met

Given the entry `O=C(c1cccs1)N1CCc2ccccc2C1` , answer whether its TGI meets or surpasses 30 µM.
Condition met

Given the entry `CN(C)CCNc1ccc(CO)c2oc3ccc(O)cc3c(=O)c12` , answer whether its TGI meets or surpasses 30 µM.
Condition not met

Given the entry `Cn1c([C@H](C#N)c2ncccc2[N+](=O)[O-])nc2ccccc21` , answer whether its TGI meets or surpasses 30 µM.
Condition met

---

System: TK-10 renal
Test: NCI tumour cell line growth inhibition, 48 h
# maps each entry to its TGI

Example compounds with recorded TGI:
# input compound: `Nc1ccccc1C#C/C=C\C#Cc1ccccc1N` ; wanted: its TGI
36.1 µM

# input compound: `COc1ccccc1CNCCCN1C(=O)c2ccc3c4c(ccc(c24)C1=O)C(=O)N(CCCNCCNCCCN)C3=O` ; wanted: its TGI
44.7 µM

# input compound: CCOC(=O)C1C(=O)CC1(C)C (stereo unspecified) ; wanted: its TGI
> 10 µM

# input compound: `CC(C)OC(=O)/C=C/C(=O)O/C=C/[N+](=O)[O-]` ; wanted: its TGI
> 100 µM

# input compound: COC(=O)C(CC(=O)Nc1ccc(C)cc1)C(=O)C(=O)Nc1c(C(C)C)cccc1C(C)C (stereo unspecified) ; wanted: its TGI
> 100 µM

Next compound, TGI to be filled in.
# input compound: `COc1cc2oc(-c3ccc(O)cc3)c(OC)c(=O)c2c(O)c1OC` ; wanted: its TGI
> 100 µM

---

# maps each entry to its TGI
Test system: OVCAR-8 ovarian
Experiment: NCI tumour cell line growth inhibition, 48 h

API: value(readout=TGI, system=OVCAR-8 ovarian) for record `c1ccc(Sc2ccc(Cc3nc4cc5ccccc5cc4[nH]3)cc2)cc1`
> 92.1 µM

API: value(readout=TGI, system=OVCAR-8 ovarian) for record `O=C(O)CNS(=O)(=O)c1ccc(NC(=O)c2ccc([N+](=O)[O-])cc2)cc1`
> 100 µM

API: value(readout=TGI, system=OVCAR-8 ovarian) for record COc1c2c(cc3c1OCO3)[C@]13C=C[C@H](OC)C[C@H]1N(C2)CC3O (stereo not given in full)
> 100 µM

API: value(readout=TGI, system=OVCAR-8 ovarian) for record CCOC(C)O[C@H]1C(=O)OCC1(C)C (stereo not given in full)
> 100 µM

API: value(readout=TGI, system=OVCAR-8 ovarian) for record `CCOC(=O)C1CCN(S(=O)(=O)/N=C2/NC(=O)NC2=C(Cl)Cl)CC1`
19.9 µM

API: value(readout=TGI, system=OVCAR-8 ovarian) for record `CCOC(=O)C(=O)Nc1ccccc1CC`
> 100 µM

API: value(readout=TGI, system=OVCAR-8 ovarian) for record CCOC(=O)c1ccc(N[C@@H]2c3cc4c(cc3C(c3cc(OC)c(O)c(OC)c3)[C@H]3C(=O)OCC32)OCO4)cc1O (stereo not given in full)
> 21.9 µM

API: value(readout=TGI, system=OVCAR-8 ovarian) for record `Clc1ccc(C[P+](c2ccccc2)(c2ccccc2)c2ccccc2)c(Cl)c1`
20.1 µM

API: value(readout=TGI, system=OVCAR-8 ovarian) for record `NC(=O)c1cc(Cl)ccc1NC(=O)/C=C/c1ccccc1`
> 100 µM

API: value(readout=TGI, system=OVCAR-8 ovarian) for record `COc1cc2oc(-c3ccc(O)cc3)c(OC)c(=O)c2c(O)c1OC`
> 100 µM

Others:
API: value(readout=TGI, system=OVCAR-8 ovarian) for record `N#Cc1[nH]c(=O)n(-c2ccccc2)c1N`
> 10 µM

API: value(readout=TGI, system=OVCAR-8 ovarian) for record `CN1CCc2nc(N)nc(-c3nc(N)nc4c3CN(C)CC4)c2C1`
> 100 µM

---

Tested on: NCI-H23 lung
Test: NCI tumour cell line growth inhibition, 48 h
# maps each entry to its log10(TGI)
Scale type: logarithmic (base 10). Underlying TGI unit: µM.

# input molecule: `Cc1ccc([N+](=O)[O-])c2c(NCCC[N+](C)(C)[O-])c3ccccc3nc12` ; wanted: its log10(TGI)
0.53

# input molecule: COc1cccc2c1C(=O)c1c(O)c3c(c(O)c1C2=O)CC(O)(C(=O)CO)CC3OC1CC(N2CCOCC2C#N)C(O)C(C)O1 (stereo unspecified) ; wanted: its log10(TGI)
-0.89

# input molecule: `CSc1nnc(SC)nn1` ; wanted: its log10(TGI)
1.69

Others:
# input molecule: `N#Cc1cc(-c2cc3ccccc3o2)oc1N` ; wanted: its log10(TGI)
1.36

# input molecule: `C1=Cc2cc3c(c4nccc(c24)N1)OCO3` ; wanted: its log10(TGI)
1.42

---

Test system: K-562 leukemia
Test: NCI tumour cell line growth inhibition, 48 h
# maps each entry to its TGI

API: value(readout=TGI, system=K-562 leukemia) for record `COc1ccc(C(=O)c2cc(OC)c(OC)c(OC)c2)cc1/C=C/C(=O)c1ccc(F)cc1`
> 100 µM

API: value(readout=TGI, system=K-562 leukemia) for record `Clc1ccc(-c2cc3nc4ccccc4nc3o2)cc1`
> 100 µM

API: value(readout=TGI, system=K-562 leukemia) for record `CN(C)CCNc1ccc(CO)c2oc3ccc(O)cc3c(=O)c12`
32.4 µM

API: value(readout=TGI, system=K-562 leukemia) for record `COc1cc2oc(-c3ccc(O)cc3)c(OC)c(=O)c2c(O)c1OC`
> 100 µM

API: value(readout=TGI, system=K-562 leukemia) for record CC(CC[C@@]1(C)C(=O)CCC2O[C@]21C)[C@H]1C[C@@H](c2ccoc2)OC1=O (stereo partly specified)
51 µM

API: value(readout=TGI, system=K-562 leukemia) for record `COc1cc(-c2nc3ccccn3c2/N=C/c2cc(Br)cc(Br)c2O)ccc1O`
> 100 µM

---

Tested on: BT-549 breast
Experiment: NCI tumour cell line growth inhibition, 48 h
# maps each entry to its log10 of TGI
Scale type: logarithmic (base 10). Underlying TGI unit: µM.

Example compounds with recorded log10 of TGI:
# input compound: `Cc1cc2ncnn2cc1Nc1ncc2c(n1)n(C1CCOCC1)c(=O)n2C` ; wanted: its log10 of TGI
1.51

# input compound: `CN(C)CCCN=c1c2ccccc2n(O)c2ccccc12` ; wanted: its log10 of TGI
1.80

# input compound: `COc1cc(-c2nc3ccccn3c2/N=C/c2cc(Br)cc(Br)c2O)ccc1O` ; wanted: its log10 of TGI
1.73

Others:
# input compound: `O=C1/C(=C(/c2ccccc2)N2CCOCC2)Cc2ccccc21` ; wanted: its log10 of TGI
0.51

# input compound: `CC(C)c1c(O)c(O)c2c(c1O)C(=O)C(O)=C1C(C)(C)CCC[C@@]12C` ; wanted: its log10 of TGI
1.11

# input compound: `Nc1ccccc1C#C/C=C\C#Cc1ccccc1N` ; wanted: its log10 of TGI
1.61

# input compound: `COc1ccc(-c2cc(-c3cc(C)cc(Br)c3O)no2)cc1` ; wanted: its log10 of TGI
1.76

# input compound: `COc1cc(OC)c(C(=O)/C=C/c2cccc(C(F)(F)F)c2)c(OC)c1` ; wanted: its log10 of TGI
0.45

# input compound: `CCNCCNc1cc(-c2ccc(C(F)(F)F)cc2)c(C#N)c2nc3ccccc3n12` ; wanted: its log10 of TGI
0.50

# input compound: COc1cccc2c1C(=O)c1c(O)c3c(c(O)c1C2=O)CC(O)(C(=O)CO)CC3OC1CC(N2CCOCC2C#N)C(O)C(C)O1 (stereo not drawn) ; wanted: its log10 of TGI
-2.95

# input compound: `CCOC(=O)c1c(N2CCOCC2)[nH]c(=O)c(C(c2c(Cl)cccc2Cl)c2c(O)c(C(=O)OCC)c(N3CCOCC3)[nH]c2=O)c1O` ; wanted: its log10 of TGI
1.29

# input compound: `C[C@@H](c1ccccc1)n1c(N)c(C#N)c2ccc([N+](=O)[O-])cc2c1=O` ; wanted: its log10 of TGI
1.48

# input compound: `CC/C=C\C[C@H](O)C/C=C1/C(=O)C=C[C@@H]1C/C=C\CCCC(=O)OC` ; wanted: its log10 of TGI
0.78

# input compound: CCCCCCCCCCCC(=O)OCC(C[As](=O)(O)O)OC(=O)CCCCCCCCCCC (stereo not drawn) ; wanted: its log10 of TGI
1.37

# input compound: `COc1ccc(/C=C/c2c(C(=O)/C=C/c3ccccc3)c(C)nc3ccccc23)cc1` ; wanted: its log10 of TGI
0.71

# input compound: CC12OC(C(=O)C13CC3)C1C(=O)c3ccc4c(ccc5ccccc54)c3C(=O)C12 (stereo not drawn) ; wanted: its log10 of TGI
1.75

# input compound: `COc1ccc(C(=O)c2cc(C)c(OC)c(C)c2)cc1OC(=O)CCl` ; wanted: its log10 of TGI
1.61

# input compound: `Nc1nc(Nc2cccnc2)sc1C(=O)c1ccccc1F` ; wanted: its log10 of TGI
0.82

# input compound: `Cc1cc(C(=O)Nc2ccc3cc(CN4CCOCC4)ccc3n2)c(C)n1-c1ccccc1` ; wanted: its log10 of TGI
0.77

All figures here come from PubChem BioAssay (NCI).
